Source of measurements: patent US9133163B2

# Target Or System: hGPR40 (Homo sapiens)
# Sequence (O14842 whole entry): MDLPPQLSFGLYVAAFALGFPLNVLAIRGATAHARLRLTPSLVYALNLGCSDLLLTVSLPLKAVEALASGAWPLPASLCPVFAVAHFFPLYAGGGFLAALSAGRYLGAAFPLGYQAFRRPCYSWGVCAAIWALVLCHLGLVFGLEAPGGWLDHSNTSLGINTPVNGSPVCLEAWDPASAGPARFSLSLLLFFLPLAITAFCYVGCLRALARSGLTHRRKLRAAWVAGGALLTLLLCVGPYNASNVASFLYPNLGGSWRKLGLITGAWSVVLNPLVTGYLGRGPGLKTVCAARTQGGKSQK
# Test: FDSS-based intracellular calcium assay
# Type: cell-based
# Parameters: 3xFLAG; expressed in transfected cells
# Condition: intracellular Ca2+ response, cells expressing GPR40
Experimental Endpoint: EC50 (nM)
Report as a plain number; the unit nM is understood.

Recorded results for 4 molecules are shown here.
>>> reported_measurement("CCOc1ccc(F)c(N2CCC(Oc3ccc(N4N=C(C(F)(F)F)[C@@H](C)[C@@H]4CC(=O)O)cc3)C(CC)C2)c1 (single isomer, unassigned) [Example 25 (Isomer 1)]")
1020
>>> reported_measurement("Cc1ccc(F)c(N2CCC(Oc3ccc(N4N=C(C(F)(F)F)[C@@H](C)[C@@H]4CC(=O)O)cc3)CC2)n1")
366
>>> reported_measurement("COc1cc(N2CC[C@@H](Oc3ccc(N4N=C(C(F)(F)F)[C@@H](C)[C@@H]4CC(=O)O)c(Br)c3)[C@H](C)C2)c(Cl)cn1")
844
>>> reported_measurement("COc1cccc(N2CCC(Oc3ccc(N4N=C(C(F)(F)F)[C@@H](C)[C@@H]4CC(=O)O)cc3)CC2)c1")
620

Task: Find EC50 (hGPR40 (Homo sapiens)) for the entry `COc1ccc(C#N)c(N2CCC(Oc3ccc(N4N=C(C(F)(F)F)[C@@H](C)[C@@H]4CC(=O)O)cc3)CC2)c1`
Result: 680

Task: hGPR40 (Homo sapiens) / EC50 / CCOc1ccc(F)c(N2CCC(Oc3ccc(N4N=C(C(F)(F)F)[C@@H](C)[C@@H]4CC(=O)O)cc3)C(CC)C2)c1 (single isomer, unassigned) [Example 25 (Isomer 2)] : value?
Result: 113

---

# Target Or System: hGPR40 (Homo sapiens)
# Test: FDSS-based intracellular calcium assay
# Type: cell-based
# Parameters: 3xFLAG; expressed in transfected cells
# Condition: intracellular Ca2+ response, cells expressing GPR40
# Experimental: FDSS-Based Intracellular Calcium Assay Compounds are dissolved in DMSO and diluted to desired concentrations with assay buffer and added to the cells as 3× solution (20 μL per well). Run fluorescence/luminescence reader FDSS (Hamamatsu) to read intracellular Ca^2+ response.
pEC50: −log10 of the molar value.
Could you label it yes (1) if measured pEC50 is 6 or higher, and no (0) otherwise?

>>> group_label("COc1ccc(F)c(N2CCC(Oc3ccc(N4N=C(C(F)(F)F)[C@@H](CC(C)C)[C@@H]4CC(=O)O)cc3)CC2)c1 (single isomer, unassigned) [Example 89, Isomer 2]")
"yes (1)"
>>> group_label("C[C@@H]1C(C(F)(F)F)=NN(c2ccc(OC3CCN(c4cc(F)ccc4Cl)CC3)cc2)[C@H]1CC(=O)O [Example 59]")
"yes (1)"
>>> group_label("COc1ccc(F)c(N2CCC(Oc3ccc(N4N=C(c5ncccn5)C(C)C4CC(=O)O)cc3)CC2)c1 (single isomer, unassigned) [Example 22, Isomer 1]")
"no (0)"
>>> group_label("C[C@@H]1C(C(F)(F)F)=NN(c2ccc(OC3CCN(c4ncccc4F)CC3)cc2)[C@H]1CC(=O)O [Example 41]")
"yes (1)"

Task: Has C[C@@H]1C(C(F)(F)F)=NN(c2ccc(OC3CCN(c4ccccc4Cl)CC3)cc2)[C@H]1CC(=O)O [Example 37] a recorded pEC50 greater than or equal to 6?
Result: yes (1)
